- target entity: hmSUCNR1 (Mus musculus, UniProt Q99MT6, G84W/K269N/N18E)
- Sequence (Q99MT6 whole entry N18E/G84W/K269N): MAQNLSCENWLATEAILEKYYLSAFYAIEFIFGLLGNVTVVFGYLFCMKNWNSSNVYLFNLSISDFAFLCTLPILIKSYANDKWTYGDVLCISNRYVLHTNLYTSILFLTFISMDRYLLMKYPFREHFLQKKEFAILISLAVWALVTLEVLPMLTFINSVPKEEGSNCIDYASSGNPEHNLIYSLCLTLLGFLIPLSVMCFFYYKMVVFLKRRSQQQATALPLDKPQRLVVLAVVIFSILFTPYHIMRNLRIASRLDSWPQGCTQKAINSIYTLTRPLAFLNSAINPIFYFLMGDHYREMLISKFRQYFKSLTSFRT
- test: BRET competition binding using 46 as tracer, hmSUCNR1
pKi: −log10 of the molar value.
recorded metric: pKi

### Prompt State its pKi for this compound: O=C(O)CCC(=O)O [Succinate]
### Response 3.20

(a) CN1CCN(Cc2ccc(-c3cccc(C(=O)Nc4ccccc4CC(=O)O)c3)cc2)CC1 [Compound 1]
(b) O=C(O)Cc1ccccc1NC(=O)c1cccc(-c2ccc(Cl)cc2)c1 [Compound 32]
### Prompt Form: Entry with minimum pKi (choose one): a / b Pick one; state its label.
### Response b
(b: 6.60, a: 7.20)
